test-name: HEK293 24hr Apoptosis Induction qHTS against the NCATS CANVASS Library (AID 1347359); as to activation: 0% is about no effect
conditions-used: HEK293 caspase-3/7 activation, Caspase-Glo luminescence; series mostly up to 46.1 µM
Records with an inconclusive call do not appear. Calls of active or inactive are those of the source. Calls follow the shape of the dose curve; as a rule, active = well fitted activation curve with a large enough effect; inconclusive = small, poorly fitted or top-dose-only effect; inactive = flat fitted curve, though single readings scatter. Numbered stars: 1 amine (or outer) side, 2 acyl side, 3 side chain; on linkers, the order of the positions; unused ones are H or OH. Square brackets hold non-standard residues; d marks the D form. Peptide text beside a SMILES is read from it. * marks the point of attachment. X1 = CCCCCCCCCC(=O)[C@H](C(=O)[*:2])[C@@H]1CNC(=O)[C@@H](N[*:1])CS1; Octanoyl = CCCCCCCC(=O)*
// allowed return values: 1 = active, 0 = inactive

## Input Give the logged outcome of this assay for the following compound: CNc1ccc(Cl)cc1C(=O)OC[C@]1(C)[C@H]2CC[C@]3(C)[C@@H](C[C@@H](OC)[C@H](C)[C@H]3C3=C(O)C(=O)OC3O)[C@]2(C)CC[C@H]1O (some centres not stated)
## Output 0

## Input Give the logged outcome of this assay for the following compound: CN1CC[C@]2(c3cccc4c3N[C@@H]3N(C)CC[C@]43[C@@]34CCN(C)[C@@H]3Nc3c([C@]56CCN(C)[C@H]5Nc5ccccc56)cccc34)c3ccccc3N[C@H]12
## Output 0

## Input Give the logged outcome of this assay for the following compound: O=C(O)Cc1c[nH]c2ccccc12
## Output 0

## Input Give the logged outcome of this assay for the following compound: CCCCCCC[C@@H](C/C=C/CCC(=O)NCCc1c[nH]c2ccccc12)OC
## Output 0

## Input Give the logged outcome of this assay for the following compound: CC1(C)CCC[C@]2(C)[C@@H]1CC[C@@]13C[C@@H](CC[C@H]12)C(C)(O)C3 (some centres not stated)
## Output 0

## Input Give the logged outcome of this assay for the following compound: CC1C(=O)C23CCC1C[C@@]21O[C@H]2C(C)(C)C=CC(=O)[C@@]23COC1=O (some centres not stated)
## Output 0

## Input Give the logged outcome of this assay for the following compound: C[C@@]12CCC[C@@](C)(C(=O)O)[C@H]1CC[C@]13C[C@H]4C[C@H](O[C@@]4(C)C1)[C@H]32
## Output 0

## Input Give the logged outcome of this assay for the following compound: C[C@@H]1C(=O)[C@]23CC[C@H]1C[C@]21O[C@H]2C(C)(C)C=CC(=O)[C@@]23COC1=O
## Output 0

## Input Give the logged outcome of this assay for the following compound: CCCCCCCCCC(=O)[C@@H]1C(=O)N[C@@H](CC(C)C)C(=O)N[C@H](C)C(=O)N2CCC[C@H]2C(=O)N[C@@H](C(C)C)C(=O)N[C@H]2CS[C@H]1CNC2=O (cyclo(L[dA]PV[X1]))
## Output 0

## Input Give the logged outcome of this assay for the following compound: CN1CCc2cc3c(c4c2[C@H]1[C@@H](O)c1ccccc1-4)OCO3
## Output 0

## Input Give the logged outcome of this assay for the following compound: CC(C)(Br)[C@@H](Cl)C[C@H](Br)[C@](C)(Cl)/C=C/Br
## Output 0

## Input Give the logged outcome of this assay for the following compound: O=c1cc(-c2ccc(O)c(O[C@@H]3O[C@H](CO)[C@@H](O)[C@H](O)[C@H]3O)c2)oc2cc(O[C@@H]3O[C@H](CO)[C@@H](O)[C@H](O)[C@H]3O)cc(O)c12
## Output 0

## Input Give the logged outcome of this assay for the following compound: CCCCCC[C@H](CCCCC[C@@H](O)C(N)=O)OC(=O)[C@@H]1CC=CN1C(=O)c1ccccc1O
## Output 0

## Input Give the logged outcome of this assay for the following compound: O=C(OC1Cc2c(O)cc(O)cc2OC1c1cc(O)c(O)c(O)c1)c1cc(O)c(O)c(O)c1 (configuration not stated)
## Output 0

## Input Give the logged outcome of this assay for the following compound: C[C@@]12CCC[C@@](C)(C(=O)O)[C@H]1C[C@@H](O)[C@]13C[C@H]4C[C@H](O[C@@]4(C)C1)[C@@H]23
## Output 0

## Input Give the logged outcome of this assay for the following compound: C[C@]12CC[C@]3(C1)[C@H](CC2=O)CC(OC(=O)c1ccccc1)[C@H]1[C@@](CO)(C(=O)O)CCC[C@@]13C (some centres not stated)
## Output 0

## Input Give the logged outcome of this assay for the following compound: COc1cc(/C=C2/C(=O)N(c3ccc(O)cc3C(=O)O)[C@H](c3ccc(O)c(OC)c3)C2C(=O)Nc2ccc(O)cc2C(=O)O)ccc1O (some centres not stated)
## Output 0

## Input Give the logged outcome of this assay for the following compound: CC12C[C@]3(O)O[C@@H](O1)[C@]1(COC(=O)c4ccccc4)[C@@H]3CC21OC1OC(CO)C(O)C(O)C1O (some centres not stated)
## Output 0

## Input Give the logged outcome of this assay for the following compound: O=Cc1ccc2n1C[C@@]1(C[C@H](O)[C@@H](CO)O1)OC2
## Output 0

## Input Give the logged outcome of this assay for the following compound: Oc1ccc(C2c3c(O)cc(O)cc3[C@@H]3C(c4ccc(O)cc4)c4c(O)cc(O)cc4[C@H]23)cc1 (some centres not stated)
## Output 0

## Input Give the logged outcome of this assay for the following compound: C=C[C@]1(C)CC[C@@H]([C@H](C)C(=O)/C=C/C(C)C)O1
## Output 0

## Input Give the logged outcome of this assay for the following compound: CC1(C)C=Cc2c(ccc3c2OC[C@@H](c2ccc(O)cc2O)C3)O1
## Output 0

## Input Give the logged outcome of this assay for the following compound: C[C@@H]1O[C@@H](Oc2c(-c3ccc(O)cc3)oc3cc(O)cc(O)c3c2=O)[C@H](O)[C@H](O)[C@H]1O
## Output 0

## Input Give the logged outcome of this assay for the following compound: CC[C@@H]1C[C@@]2(CC)OC(=O)[C@@]3(CC)OC(=O)[C@@H]1[C@@H]23
## Output 0

## Input Give the logged outcome of this assay for the following compound: Cc1cc(O)cc2oc(C[C@H](C)O)cc(=O)c12
## Output 0

## Input Give the logged outcome of this assay for the following compound: CC1(C)CC[C@]2(C(=O)O)CC[C@]3(C)C(=CC[C@@H]4[C@@]5(C)C[C@@H](O)[C@H](O)C(C)(C)[C@@H]5CC[C@]43C)[C@@H]2C1
## Output 0

## Input Give the logged outcome of this assay for the following compound: CCCCCCCCCCCCCCC[C@H](O)C[C@@H](O)C[C@@H](O)C[C@@H](O)C[C@@H](O)C[C@H]1CC=CC(=O)O1
## Output 1

## Input Give the logged outcome of this assay for the following compound: CCCCCCCC(=O)N[C@@H](CC(C)C)C(=O)N[C@H](C=O)CCC(=O)O (Octanoyl-Leu-Glu-aldehyde)
## Output 0

## Input Give the logged outcome of this assay for the following compound: C=C[C@@]1(C)CC[C@@H]([C@H](C)C(=O)/C=C/C(C)C)O1
## Output 0

## Input Give the logged outcome of this assay for the following compound: C=C[C@]1(C)CC[C@@H]([C@H](C)C(=O)OCC)O1
## Output 0

## Input Give the logged outcome of this assay for the following compound: COc1ccc(/C=C2\COc3cc(O)ccc3C2=O)cc1
## Output 0

## Input Give the logged outcome of this assay for the following compound: O=C1C[C@@H](c2ccc(O)c(-c3c(O)cc(O)c4c3O[C@H](c3ccc(O)cc3)CC4=O)c2)Oc2cc(O)cc(O)c21
## Output 0
